Entries and their kon
- measurement_target: T1, recombinant human cardiac troponin T (human, UniProt P45379 2-298)
- T1 construct: In the ECL assay the cTnT came from the Troponin T hs CalSet calibrator; also called cTnT; TnT
- assay_overview: SPR (Biacore T200, 37 C), Fab captured, cTnT analyte
- Method: Detailed kinetic investigations were performed at 37° C. on a GE Healthcare T200 instrument. A Biacore CM-5 series S sensor was mounted into the instrument and was preconditioned according to the manufacturer's instructions. The system buffer was HBS-ET (10 mM HEPES (pH 7.4), 150 mM NaCl, 1 mM EDTA, 0.05% (w/v) Tween® 20). The sample buffer was the system buffer supplemented with 1 mg/ml CMD (Carboxymethyldextran, Fluka). […]
Report only the number, with the unit M⁻¹ s⁻¹ understood.

Known results for binders:
>  <binder>
anti-cTnT Fab mutant 20 (V101Y + Y104F) (Fab, V domains shown, also called combination 20) VH: EVQLQQSGPELVKPGASVKMSCKASGYTFTDYYMKWVKQSHGKSLEWIGDINPNNGETFYNQKFKDKATLTVDKSSSTAYMQLNSLTSEDSAVYYCATRYFDFWGQGTTLTVSS VL: DIVLTQSPASLAVSLGQRATISCKASQSVDYDGTSYMNWFQQKAGQPPKRLIYAASNLESGIPARFSGRGSGTDFALNIHPVEEEDAATYYCQQSNEDPYTFGGGTKLEIK

>  <quantitative_readout>
3.1e+06

$$$$
>  <binder>
anti-cTnT Fab mutant 17 (F60W) (Fab, V domains shown, also called combination 17) VH: EVQLQQSGPELVKPGASVKMSCKASGYTFTDYYMKWVKQSHGKSLEWIGDINPNNGETWYNQKFKDKATLTVDKSSSTAYMQLNSLTSEDSAVYYCATRVFDYWGQGTTLTVSS VL: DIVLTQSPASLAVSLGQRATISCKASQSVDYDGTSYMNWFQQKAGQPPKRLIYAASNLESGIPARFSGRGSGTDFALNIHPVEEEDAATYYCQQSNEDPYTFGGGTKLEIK

>  <quantitative_readout>
2.9e+06

$$$$
>  <binder>
anti-cTnT Fab mutant 3 (Y34F, F60W, V101Y) (Fab, V domains shown, also called combination 3) VH: EVQLQQSGPELVKPGASVKMSCKASGYTFTDYFMKWVKQSHGKSLEWIGDINPNNGETWYNQKFKDKATLTVDKSSSTAYMQLNSLTSEDSAVYYCATRYFDYWGQGTTLTVSS VL: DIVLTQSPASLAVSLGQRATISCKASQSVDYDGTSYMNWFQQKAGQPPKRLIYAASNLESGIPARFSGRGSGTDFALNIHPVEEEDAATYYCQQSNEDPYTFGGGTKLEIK

>  <quantitative_readout>
2.1e+06

$$$$

// returns reported kon for input anti-cTnT Fab mutant 2 (Y34F, F60W) (Fab, V domains shown, also called combination 2) VH: EVQLQQSGPELVKPGASVKMSCKASGYTFTDYFMKWVKQSHGKSLEWIGDINPNNGETWYNQKFKDKATLTVDKSSSTAYMQLNSLTSEDSAVYYCATRVFDYWGQGTTLTVSS VL: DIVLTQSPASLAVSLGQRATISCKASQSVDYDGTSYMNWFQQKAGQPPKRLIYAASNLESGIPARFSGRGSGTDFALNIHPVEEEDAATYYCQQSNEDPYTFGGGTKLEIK
2.2e+06

// returns reported kon for input anti-cTnT Fab mutant 4 (Y34F, F60W, Y104F) (Fab, V domains shown, also called combination 4) VH: EVQLQQSGPELVKPGASVKMSCKASGYTFTDYFMKWVKQSHGKSLEWIGDINPNNGETWYNQKFKDKATLTVDKSSSTAYMQLNSLTSEDSAVYYCATRVFDFWGQGTTLTVSS VL: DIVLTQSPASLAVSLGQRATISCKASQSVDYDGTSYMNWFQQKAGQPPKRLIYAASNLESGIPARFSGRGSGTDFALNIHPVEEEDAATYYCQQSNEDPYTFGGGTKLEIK
2.7e+06
